For each of the compounds below, state its Estimated Phase Region: Lamellar.
# procedure-summary: Surfactant phase behavior study (cross-polarized microscopy)
# Type: physicochemical
# measurement-setup: room temperature (20-22° C.)

Some solved cases for reference:
- compound: "CCCCCCCCCCOS(=O)(=O)O.N [sat. analog of A10-2, reference compound]"
  result: "64-80 % actives"
- compound: "C=CCCCCCCCCOS(=O)(=O)[O-].[Na+]"
  result: "70-81 % actives"
- compound: "CCCCCCCCCCCCOS(=O)(=O)O.N [sat. analog of A12-2, reference compound]"
  result: "63-74 % actives"
- compound: "CCCCCCCCCCCCOCCOCCOCCOS(=O)(=O)[O-].[Na+] [sat. analog of A12-9, reference compound]"
  result: "60-78 % actives"

We now examine a further compound.
Exam item: What does the record list as Estimated Phase Region: Lamellar for C=CCCCCCCCCOS(=O)(=O)O.N ?
Marked response: 64-80 % actives

###

# procedure-summary: Surfactant phase behavior study (cross-polarized microscopy)
# Format: physicochemical
# measurement-setup: room temperature (20-22° C.)
Provide the reported Estimated Phase Region: Isotropic Clear of each item.

Below: 3 molecules and their reported Estimated Phase Region: Isotropic Clear.
- molecule: "C=CCCCCCCCCOS(=O)(=O)[O-].[Na+] [A10-3]"
  result: "0-43 % actives"
- molecule: "CCCCCCCCCCCCOS(=O)(=O)O.N [sat. analog of A12-2, reference compound]"
  result: "0-31 % actives"
- molecule: "CCCCCCCCCCOS(=O)(=O)[O-].[Na+] [sat. analog of A10-3, reference compound]"
  result: "0-41 % actives"

Parameter requested: Estimated Phase Region: Isotropic Clear. Apply to each item below.
1. CCCCCCCCCCCCOCCOCCOCCOS(=O)(=O)[O-].[Na+] [sat. analog of A12-9, reference compound]
2. CCCCCCCCCCCCOS(=O)(=O)[O-].[Na+] [sat. analog of A12-3, reference compound]

Marked response:
0-24 % actives
0-31 % actives

###

# procedure-summary: Surfactant phase behavior study (cross-polarized microscopy)
# Type: physicochemical
# measurement-setup: room temperature (20-22° C.)
So I've got a bunch of compounds here, and I need their Estimated Phase Region: Hexagonal values.

- compound: "CCCCCCCCCCOS(=O)(=O)[O-].[Na+] [sat. analog of A10-3, reference compound]"
  result: "41-59 % actives"
- compound: "CCCCCCCCCCCCOS(=O)(=O)O.N [sat. analog of A12-2, reference compound]"
  result: "31-63 % actives"
- compound: "CCCCCCCCCCOS(=O)(=O)O.N [sat. analog of A10-2, reference compound]"
  result: "42-64 % actives"

Batch of 3 compounds: report Estimated Phase Region: Hexagonal for each.
1. CCCCCCCCCCCCOCCOCCOCCOS(=O)(=O)[O-].[Na+] [sat. analog of A12-9, reference compound]
2. C=CCCCCCCCCOS(=O)(=O)[O-].[Na+]
3. C=CCCCCCCCCOS(=O)(=O)O.N

Marked response:
24-60 % actives
43-70 % actives
42-64 % actives
